Target: Ubiquitin-conjugating enzyme E2 N (Homo sapiens)
Test: UBC13 polyubiquitin chain formation inhibitors, primary screen, biochemical, TR-FRET, uHTS (AID 485273)
Settings: at 20 µM, hits give high values
Out of some 330,000 compounds screened, about 1,500 (0.45%) were called active. The entries come from a sample that favours actives as a whole.
result_type: inhibition (%)
Give the value in % but do not write % after it.

Task item: Supply measured inhibition of `CCOC(=O)c1c(C)c(C(=O)N2CCC3(CC2)OCCO3)c(C)n1CC` in your reply.
Reply: -14.5

Task item: Supply measured inhibition of `CCN(N=Nc1nonc1OC)c1nonc1OC` in your reply.
Reply: -6.3

Task item: Supply measured inhibition of CNCC(O)c1cc(F)c(OCc2ccccc2)c(OCc2ccccc2)c1F (centres undefined) in your reply.
Reply: 69.2

Task item: Supply measured inhibition of O=C1NC(=O)C(CCc2ccccn2)(Cc2cccc(Cl)c2Cl)C(=O)N1c1ccc(Br)cc1 (centres undefined) in your reply.
Reply: 0.9

Recorded values, source PubChem BioAssay AID485273.
